Molecular target: Serine/threonine-protein kinase 33 (Homo sapiens)
Assay: STK33 kinase inhibitors, primary screen, biochemical, luminescence, ADP-Glo, MBP substrate (AID 2322)
Details: at 12.5 µM, hits give high values
About 120 (0.44%) of roughly 27,000 compounds were called active. The sample holds actives, similar compounds and a random draw of the others, so the mix is not that of the screen.
metric: inhibition (%)
Response body: numeric value in %, unit text excluded.

Before answering, review these 6 worked examples.
O=C(CCn1nc(-c2ccccc2)c2ccccc2c1=O)Nc1cccc(Br)c1 | 8.57
CS(=O)(=O)N(CC(=O)Nc1ccc(F)cc1F)c1cc(Cl)c(Cl)cc1Cl | -1.13
Cc1nnc(SCC(=O)Nc2cc(C(F)(F)F)ccc2Cl)s1 | 3.42
O=[N+]([O-])c1ccc(NCCNCc2cccnc2)cc1 | 0.298
CCc1ccccc1NC(=O)COc1cc(O)c2c(=O)cc(-c3ccccc3)oc2c1 | 6.95
C[C@H]1CN([C@@H](C)CO)C(=O)CCCn2nncc2CO[C@H]1CN(C)Cc1ccc2c(c1)OCO2 | 5.15

Field: next molecule
Prompt: Looking for the measured inhibition of CCOc1ccccc1NC(=O)C1C(C(=O)O)C2C=CC1C21CC1 (configuration not stated) , can you help?
Response: -4.9

Origin of the recorded values: PubChem BioAssay AID2322
